tested_on: Neu5Ac(a2-3)Gal(b1-4)GlcNAc(b1-2)Man
assay: glycan array binding signal (z-score within array); higher = stronger binding
condition_summary: glycan notation: IUPAC condensed, linker removed
The entries come from a sample that favours the strongest signals as a whole.
glycan array binding signal (z-score) values for the binders below.
property_name: glycan array binding signal (z-score)

HBHA-Rv (Mycobacterium tuberculosum), P0A5P6 (protein) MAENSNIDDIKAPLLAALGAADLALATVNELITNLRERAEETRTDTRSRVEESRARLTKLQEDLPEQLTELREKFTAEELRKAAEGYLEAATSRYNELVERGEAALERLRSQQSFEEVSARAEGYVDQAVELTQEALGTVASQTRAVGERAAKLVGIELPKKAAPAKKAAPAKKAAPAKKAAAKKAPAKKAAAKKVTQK	-0.023
Clone730PsrP (Streptococcus pneumoniae) (protein) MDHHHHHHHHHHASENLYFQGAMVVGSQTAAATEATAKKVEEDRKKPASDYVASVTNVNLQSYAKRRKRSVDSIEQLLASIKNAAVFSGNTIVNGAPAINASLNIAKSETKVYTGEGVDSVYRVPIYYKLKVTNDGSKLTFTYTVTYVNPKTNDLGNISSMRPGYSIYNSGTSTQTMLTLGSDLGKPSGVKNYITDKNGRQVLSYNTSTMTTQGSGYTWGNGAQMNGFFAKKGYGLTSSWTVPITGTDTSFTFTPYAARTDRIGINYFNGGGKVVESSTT	1.83
Clone646PsrP (Streptococcus pneumoniae) (protein) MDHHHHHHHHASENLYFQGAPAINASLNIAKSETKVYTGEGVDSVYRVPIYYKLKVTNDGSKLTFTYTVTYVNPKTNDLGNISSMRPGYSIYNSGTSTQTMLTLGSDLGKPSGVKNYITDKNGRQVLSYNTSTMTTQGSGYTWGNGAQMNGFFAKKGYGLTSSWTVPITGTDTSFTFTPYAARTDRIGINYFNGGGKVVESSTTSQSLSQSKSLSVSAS	2.89
